biological target: UniProt:Q9BYT3; experiment: radiometric filter-binding kinase assay; details: compound 10.0 µM
Sequence (Q9BYT3 whole entry, looked up): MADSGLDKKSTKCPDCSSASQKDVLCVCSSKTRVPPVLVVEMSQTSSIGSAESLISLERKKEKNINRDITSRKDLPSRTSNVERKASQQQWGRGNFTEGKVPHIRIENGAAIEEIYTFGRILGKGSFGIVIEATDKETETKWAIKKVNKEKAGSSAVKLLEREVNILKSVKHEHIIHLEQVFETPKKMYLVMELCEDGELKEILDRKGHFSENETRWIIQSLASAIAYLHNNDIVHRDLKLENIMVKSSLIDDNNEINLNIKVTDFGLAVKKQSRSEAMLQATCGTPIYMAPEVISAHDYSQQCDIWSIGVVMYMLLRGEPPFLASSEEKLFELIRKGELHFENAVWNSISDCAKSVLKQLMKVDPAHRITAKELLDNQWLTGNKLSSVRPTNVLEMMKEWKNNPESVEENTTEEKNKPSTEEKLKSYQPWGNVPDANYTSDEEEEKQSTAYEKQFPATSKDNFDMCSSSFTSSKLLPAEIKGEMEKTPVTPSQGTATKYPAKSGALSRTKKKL
Measured Property: residual activity (%)
All answers are understood in %, so give the number only.

INSERT INTO assay_data (compound, test_system, experimental_result) VALUES
  ('NCC(=O)Nc1ccc(-n2nc(C(F)(F)F)cc2-c2ccc3c(ccc4ccccc43)c2)cc1', 'UniProt:Q9BYT3', 92),
  ('NC(=O)c1c(NC(=O)C2CC2)sc2c1CCCC2', 'UniProt:Q9BYT3', 74),
  ('CNc1nc(-c2ccc3c(N)n[nH]c3c2)cc(N2C[C@@H](C(=O)NC3CCCCC3)CC[C@H]2C)n1', 'UniProt:Q9BYT3', 43);

[ask] Could you please provide reported residual activity for CC1=C(CO)C(=O)O[C@@H]([C@@H](C)[C@H]2CC[C@H]3[C@@H]4C[C@H]5O[C@]56[C@@H](O)C=CC(=O)[C@]6(C)C4CC[C@]23C)C1 (some centres undefined) ? Thanks!
[reply] 120

[ask] Give a short answer stating reported residual activity for O=C(NOCC(O)CO)c1ccc(F)c(F)c1Nc1ccc(I)cc1Cl (centres undefined) .
[reply] 90

[ask] Write down residual activity measured for item CCn1c(-c2nonc2N)nc2cncc(CNC3CCNCC3)c21
[reply] 74

[ask] Look up residual activity of CC(C)(C#N)c1ccc(N2C(=O)OCc3cnc4ccc(-c5cnc6ccccc6c5)cc4c32)cc1 and report it.
[reply] 98

[ask] Entry COc1cc(C(=O)N2CCOCC2)c(F)cc1Nc1ncc(C(F)(F)F)c(NC2CC2)n1 needs its residual activity filled in; supply it.
[reply] 30

[ask] Provide one value: measured residual activity of Nc1cccc2c1CN(C1CCC(=O)NC1=O)C2=O (centres undefined)
[reply] 119

---

biological target: CSNK2A1 (human); assay: radiometric filter-binding kinase assay; conditions: compound 100.0 µM
Measured Property: residual activity (%)
Answer in %, number only, no unit symbol.

INSERT INTO assay_data (entry_smiles, measured_property, unit_annotation, experimental_result) VALUES
  ('N#Cc1c(O)c2c(-c3ccc(-c4ccccc4O)cc3)csc2[nH]c1=O', 'residual activity', '%', 86);

[ask] Report residual activity, nothing else, for this molecule: COC(=O)/C=C/C(=O)OC
[reply] 95

[ask] Specify residual activity for Cc1cc(N=Nc2cc(S(=O)(=O)O)c(C)cc2C)c(N)cc1O and stop.
[reply] 51

[ask] Report residual activity for Cc1ccc2c(c1)C(=O)[C@@]1(O)CCN(c3ccccc3)C1=N2
[reply] 101

---

target: PIM1 (human); assay: radiometric filter-binding kinase assay; conditions: compound 1.0 µM
Measured Property: residual activity (%)
Report the figure in % without appending any unit label.

INSERT INTO measurements (molecule, unit_annotation, experimental_result) VALUES
  ('COc1cc(C(=O)N2CCOCC2)c(F)cc1Nc1ncc(C(F)(F)F)c(NC2CC2)n1', '%', 101),
  ('CNc1nc(-c2ccc3c(N)n[nH]c3c2)cc(N2C[C@@H](C(=O)NC3CCCCC3)CC[C@H]2C)n1', '%', 112),
  ('COc1ccc2c(c1)c1c3c(c4c5ccccc5n(C)c4c1n2CC(O)CN(C)C)C(=O)NC3=O (stereo not given)', '%', 1),
  ('CCCCCc1ccc(/C=C/[C@H](O)[C@@H](CO)NC)cc1', '%', 95);

// switching to the query molecule
[ask] Quickly give me recorded residual activity for CCNc1nc(Nc2cc(F)c(C(=O)N3CCOCC3)cc2OC)ncc1C(F)(F)F
[reply] 94
